TARGET_OF_ASSAY: human HPK1 (Homo sapiens (Human), UniProt Q92918)
Sequence (Q92918 whole entry): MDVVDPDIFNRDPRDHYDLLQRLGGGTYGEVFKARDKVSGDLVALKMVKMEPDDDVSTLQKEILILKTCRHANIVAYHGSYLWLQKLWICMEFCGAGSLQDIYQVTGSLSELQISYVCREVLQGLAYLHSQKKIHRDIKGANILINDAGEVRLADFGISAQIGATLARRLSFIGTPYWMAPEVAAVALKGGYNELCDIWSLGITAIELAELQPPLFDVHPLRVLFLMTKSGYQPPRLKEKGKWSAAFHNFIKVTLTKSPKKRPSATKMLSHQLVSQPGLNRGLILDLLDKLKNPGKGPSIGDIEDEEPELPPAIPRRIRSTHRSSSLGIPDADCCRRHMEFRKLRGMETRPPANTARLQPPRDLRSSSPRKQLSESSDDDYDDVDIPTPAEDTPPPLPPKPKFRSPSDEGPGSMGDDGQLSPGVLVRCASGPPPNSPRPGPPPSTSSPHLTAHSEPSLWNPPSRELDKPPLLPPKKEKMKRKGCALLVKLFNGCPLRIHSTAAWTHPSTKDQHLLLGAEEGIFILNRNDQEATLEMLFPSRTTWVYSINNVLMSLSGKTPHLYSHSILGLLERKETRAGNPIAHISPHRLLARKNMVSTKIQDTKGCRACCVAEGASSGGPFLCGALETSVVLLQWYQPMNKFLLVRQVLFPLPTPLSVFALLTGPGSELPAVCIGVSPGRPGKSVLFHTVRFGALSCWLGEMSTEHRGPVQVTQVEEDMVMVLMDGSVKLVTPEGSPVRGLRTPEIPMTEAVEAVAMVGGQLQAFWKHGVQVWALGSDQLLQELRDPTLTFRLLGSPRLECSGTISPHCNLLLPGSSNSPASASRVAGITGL
ASSAY_NAME: Kinase activity assay using ADP-Glo method (Method 2)
Format: biochemical
EXPERIMENTAL_PARAMETERS: HPK1 enzyme concentration 0.1 nM; ATP concentration 10 μM
READOUT_TYPE: pIC50
Scale note: pIC50 = -log10(concentration in M).

Worked examples follow.
* O=C1NCc2c(-c3cnc4cc(F)ccn34)ccc(Nc3ccc4c(n3)OC[C@@H]3COCCN43)c21 | 8.70
* Cn1ccc2c(-c3ncc(Nc4ccc5c(n4)OC[C@@H]4COCCN54)c4c3CNC4=O)ccnc21 | 9.21

q: Recorded pIC50 of "O=C1NCc2c(-c3cnc4cc(F)ccn34)ccc(Nc3ccc4c(n3)OC[C@H]3COCCN43)c21" , please.
a: 9.15

These measurements were taken from patent US20250282798A1.
